test system: U2OS; test: Incucyte cell viability with U2OS; format: toxicity, cell-based; conditions: human, 12 h, 10 µM, compound concentration 10 uM, replicate number 1, timepoint 12 hours; note: filed as whole numbers so only -1 and 0 and 1 occur
Parameter measured: Growth Rate
Answer with a bare number; do not write a unit.

Previously resolved entries follow.
CO[C@@H](C)c1c(Nc2ccc([C@@H](N(C)C(=O)C3CCS(=O)(=O)CC3)C(F)(F)F)cc2)cnc2cc(Cl)nn12 [NVS-MALT1-C]    1
Cc1nnc2c3ccccc3c(N[C@@H](C)[C@H](c3ccccc3)N(C)C)nn12    1
CCCCCCCCCCCCCCCCOC[C@H](COP(=O)([O-])OCC[N+](C)(C)C)OC(C)=O    1

Q. Requested read-out Growth Rate, target or system U2OS, entry COc1cccc2cc(-c3nc([C@H]4CC[C@H](C(=O)O)CC4)n4ncnc(N)c34)[nH]c12 [OSI-027]
A. 1

Q. Requested read-out Growth Rate, target or system U2OS, entry `CCCNS(=O)(=O)Nc1ncnc(OCCOc2ncc(Br)cn2)c1-c1ccc(Br)cc1`
A. 0

Q. Requested read-out Growth Rate, target or system U2OS, entry C[C@H]1Oc2cc(cnc2N)-c2c(nn(C)c2C#N)CN(C)C(=O)c2ccc(F)cc21 [LORLATINIB]
A. 1

Q. Requested read-out Growth Rate, target or system U2OS, entry `Cl.O=C(O)Cc1cccc(OCCCN(Cc2cccc(C(F)(F)F)c2Cl)CC(c2ccccc2)c2ccccc2)c1`
A. 0

Q. Requested read-out Growth Rate, target or system U2OS, entry `Cc1cc([C@@H](C)Nc2cccc(-c3cc(C)c(C(=O)N[C@@H](C)C(=O)O)c(C)c3)c2)ccc1Cl`
A. 1

Q. Requested read-out Growth Rate, target or system U2OS, entry `CCn1c(=O)c(-c2ccc(-c3cncs3)cc2Cl)cc2cnc(Nc3ccc(N4CCN(C)CC4)cc3)nc21`
A. 0

Q. Requested read-out Growth Rate, target or system U2OS, entry Cc1c(NC(=O)c2cc(C(N)=O)nc3cc(F)ccc23)c(C(F)(F)F)nn1Cc1ccc(C(C)(C)C)cc1 [BAY-588]
A. 1

* * *

system: Fibroblast; assay: Multiplex assay against human fibroblast; assay type: toxicity, cell-based; conditions: 24 h, 10 µM, compound concentration 10 uM, replicate 2
If the reported Population Mitochondria Different-Phenotype (%) equals or exceeds 80%, assign true (1). If not, assign false (0).

Reference set, count: 4
COc1ccc(-c2ccc3c(N4CCOCC4)nc(N4C[C@@H](C)O[C@@H](C)C4)nc3n2)cc1CO    false (0)
CNC(=O)c1ccc(Nc2nc(OC3CCCC3)c3c(-c4ccc5nc(C)oc5c4)c[nH]c3n2)c(OC)c1    false (0)
CCOC(=O)c1c(C)[nH]c2ccc3c(c12)CN1CCc2cc(OC)ccc2C1O3 (stereo unspecified)    true (1)
S=C(NCCCc1c[nH]cn1)NCCCN(Cc1ccc(Cl)c(Cl)c1)c1ccc(Br)cn1    true (1)

Could you now consider this next compound?
Q. Dear colleague, could you confirm whether `CCOc1cc(C(=O)N2CCC(N3CCN(C)CC3)CC2)ccc1Nc1ncc2c(n1)N(C1CCCC1)c1ccccc1C(=O)N2C` has Population Mitochondria Different-Phenotype (%) at or above 80%?
A. true (1)

* * *

Known Population Mitochondria Different-Phenotype (%) of a selection of compounds
test system: HEK-293T; assay: Multiplex assay against HEK293T; format: toxicity, cell-based; conditions: human, 12 h, 10 µM, compound concentration 10 uM, replicate 2
The response must be a number in % with no trailing unit.

Previously resolved entries follow.
CCn1cc(-c2ccnc3[nH]c(-c4cccc(CN(C)C)c4)cc23)c(-c2ccc(NC(=O)N(C)C)cc2)n1    37
CCc1cccc(CC)c1NC(=O)c1nn(C)c2c1CCc1cnc(Nc3ccc(N4CCN(C)CC4)cc3OC)nc1-2    24
CCN1CCN(Cc2ccc(Nc3ncc(F)c(-c4cc(F)c5nc(C)n(C(C)C)c5c4)n3)nc2)CC1.CS(=O)(=O)O    79

Here's the next entry for you.
Q. What does the data say about its Population Mitochondria Different-Phenotype (%)? Entry: CN1CCC(=C2c3ccccc3CC(=O)c3sccc32)CC1.O=C(O)/C=C/C(=O)O [KETOTIFEN FUMARATE]
A. 100

The reported measurements were obtained from ChEMBL document CHEMBL4689842.
